What IC50 was measured for each of the following?
# system: menin (Homo sapiens, UniProt O00255, T541A)
# Construct: Menin (a.a. 1-610-6×his tag)
# Sequence (O00255 with tags, fused parts or gaps T541A): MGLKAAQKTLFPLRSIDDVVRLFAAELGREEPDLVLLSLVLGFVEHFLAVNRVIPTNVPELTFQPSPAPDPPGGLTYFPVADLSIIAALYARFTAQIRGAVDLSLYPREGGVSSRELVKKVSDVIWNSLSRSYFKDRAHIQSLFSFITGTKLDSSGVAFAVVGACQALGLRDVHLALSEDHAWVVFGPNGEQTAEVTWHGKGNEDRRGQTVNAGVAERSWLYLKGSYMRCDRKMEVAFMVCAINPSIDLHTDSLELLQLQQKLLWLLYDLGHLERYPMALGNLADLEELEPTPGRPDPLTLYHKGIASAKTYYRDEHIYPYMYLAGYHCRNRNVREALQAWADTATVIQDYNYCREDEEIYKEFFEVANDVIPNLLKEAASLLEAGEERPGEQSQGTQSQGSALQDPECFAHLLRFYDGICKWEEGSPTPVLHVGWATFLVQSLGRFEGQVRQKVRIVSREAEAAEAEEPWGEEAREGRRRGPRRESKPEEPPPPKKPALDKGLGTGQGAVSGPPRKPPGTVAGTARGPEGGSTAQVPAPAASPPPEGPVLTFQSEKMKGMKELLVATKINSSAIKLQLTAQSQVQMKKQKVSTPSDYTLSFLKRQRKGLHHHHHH
# assay.summary: Menin/MLL homogenous time-resolved fluorescence (HTRF) assay
# Format: binding
# experimental.conditions: location 2; read-out: (2) location 2 Menin HTRF assay (IC50 (nM))
Give bare numbers, in nM.

- CNC(=O)c1ccc(NC2CC3(CCN(c4ncnc5sc(CC(F)(F)F)cc45)C3)C2)nc1 (single isomer, unassigned) [Compound 71]: 433
- CC(CN(C)C)NC(=O)c1ccc(NC2CC3(CCN(c4ncnc5sc(CC(F)(F)F)cc45)C3)C2)cc1 (mixture of isomers) [Compound 193]: 4.2

With those in mind, consider the next compound.
Record request: IC50 value, item CNC(=O)c1ccc(NC2CC3(CCN(c4ncnc5sc(CC(F)(F)F)cc45)C3)C2)cc1F (stereo not drawn) [Compound 203]
2.8

----------
# system: menin (Homo sapiens, UniProt O00255, T541A)
# Construct: Menin (a.a. 1-610-6×his tag)
# assay.summary: Menin/MLL homogenous time-resolved fluorescence (HTRF) assay
# Type: binding
# experimental.conditions: location 2; read-out: (2) location 2 Menin HTRF assay (IC50 (nM))
Define the label as rule met when IC50 is strictly less than 30 nM and as rule not met in all remaining cases.

Here are 4 compounds together with their reported answers.
- O=c1[nH]c2cc(N[C@H]3CCC4(C3)CN(c3ncnc5sc(CC(F)(F)F)cc35)C4)ccc2o1 (single isomer, unassigned): rule met
- CS(=O)(=O)NC(=O)c1ccc(NC2CC3(CCN(c4ncnc5sc(CC(F)(F)F)cc45)C3)C2)cc1 (single isomer, unassigned) [Compound 361]: rule not met
- CNC(=O)c1ccc(NC2CC3(CCN(c4ncnc5sc(CC(F)(F)F)cc45)C3)C2)c(Cl)c1 (single isomer, unassigned) [Compound 69]: rule met
- FC(F)(F)Cc1cc2c(N3CCC4(CC(Nc5ccc6cnoc6c5)C4)C3)ncnc2s1 (mixture of isomers): rule met

Decide: IC50 of CNC(=O)c1ccc(NC2CC3(CCN(c4ncnc5sc(CC(F)(F)F)cc45)C3)C2)cc1C#N (mixture of isomers) strictly below 30 nM?
rule not met

----------
# system: menin (Homo sapiens, UniProt O00255, T541A)
# Construct: Menin (a.a. 1-610-6×his tag)
# assay.summary: Menin/MLL homogenous time-resolved fluorescence (HTRF) assay
# Type: binding
# experimental.conditions: location 2; read-out: (2) location 2 Menin HTRF assay (IC50 (nM))
What IC50 was measured for each of the following?
One number for each entry, in nM.

* N#CCc1ccc(C(=O)NC2CC3(CCN(c4ncnc5sc(CC(F)(F)F)cc45)C3)C2)cc1 (single isomer, unassigned) [Compound 12] | 730
* O=c1[nH]c2ccc(N[C@H]3CCC4(C3)CN(c3ncnc5sc(CC(F)(F)F)cc35)C4)cc2o1 (single isomer, unassigned) | 131
* COCCNC(=O)c1ccc(NC2CC3(CCN(c4ncnc5sc(CC(F)(F)F)cc45)C3)C2)cc1 (stereo not drawn) [Compound 85] | 0.7
* Cc1nc(N2CCC3(CC(NCc4ccccc4)C3)C2)c2cc(CC(F)(F)F)sc2n1 (single isomer, unassigned) [Compound 261] | 529
* Nc1nc(N2CCC3(CC(Nc4ccc5[nH]c(=O)[nH]c5c4)C3)C2)c2cc(CC(F)(F)F)sc2n1 (single isomer, unassigned) [Compound 382] | 27.9

With those in mind, consider the next molecule.
Record request: IC50 value, item CN(C1CC2(CCN(c3ncnc4sc(CC(F)(F)F)cc34)C2)C1)S(=O)(=O)c1cccc(C#N)c1 (mixture of isomers)
234

----------
# system: menin (Homo sapiens, UniProt O00255, T541A)
# Construct: Menin (a.a. 1-610-6×his tag)
# Sequence (O00255 with tags, fused parts or gaps T541A): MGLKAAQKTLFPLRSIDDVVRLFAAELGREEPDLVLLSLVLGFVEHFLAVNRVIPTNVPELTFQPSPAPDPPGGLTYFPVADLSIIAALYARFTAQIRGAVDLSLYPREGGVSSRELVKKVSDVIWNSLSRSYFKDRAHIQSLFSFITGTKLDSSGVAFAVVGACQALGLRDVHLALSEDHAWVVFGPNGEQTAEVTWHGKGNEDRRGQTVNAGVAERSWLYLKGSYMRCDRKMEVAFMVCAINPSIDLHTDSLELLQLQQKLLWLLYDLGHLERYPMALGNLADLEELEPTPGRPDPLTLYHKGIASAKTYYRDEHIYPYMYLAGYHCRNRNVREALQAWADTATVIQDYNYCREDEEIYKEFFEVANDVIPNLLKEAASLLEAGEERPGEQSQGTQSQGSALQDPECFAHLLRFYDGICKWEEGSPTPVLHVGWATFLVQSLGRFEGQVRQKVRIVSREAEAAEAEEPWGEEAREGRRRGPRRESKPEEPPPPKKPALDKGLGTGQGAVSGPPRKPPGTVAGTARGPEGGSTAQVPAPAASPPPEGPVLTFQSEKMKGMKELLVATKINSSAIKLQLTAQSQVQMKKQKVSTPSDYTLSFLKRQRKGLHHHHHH
# assay.summary: Menin/MLL homogenous time-resolved fluorescence (HTRF) assay
# Format: binding
# experimental.conditions: location 2; read-out: (2) location 2 Menin HTRF assay (IC50 (nM))
What log10(IC50) was measured for each of the following?
Heads up: the numbers are on a log10 scale; they represent IC50 in nM.

// solved cases for log10(IC50) follow
- O=C1NCCN1Cc1ccc(NC2CC3(CCN(c4ncnc5sc(CC(F)(F)F)cc45)C3)C2)cc1 (stereo not shown): 1.34
- CNC(=O)c1ccc(NC2CC3(CCN(c4ncnc5sc(CC(F)(F)F)cc45)C3)C2)cc1 (stereo not shown) [Compound 93]: 0.76
- O=C(NCCO)c1ccc(NC2CC3(CCN(c4ncnc5sc(CC(F)(F)F)cc45)C3)C2)cc1 (stereo not shown) [Compound 83]: 1.77

Please go through the list and note log10(IC50) for each compound.
1. CS(=O)(=O)N1CCN(CCNC(=O)c2ccc(NC3CC4(CCN(c5ncnc6sc(CC(F)(F)F)cc56)C4)C3)cc2)CC1 (single isomer, unassigned) [Compound 190]
2. O=C(c1ccc(NC2CC3(CCN(c4ncnc5sc(CC(F)(F)F)cc45)C3)C2)nn1)N1CCOCC1 (single isomer, unassigned) [Compound 420]
3. O=c1[nH]c2ccc(CNC3CCC4(C3)CN(c3ncnc5sc(CC(F)(F)F)cc35)C4)cc2[nH]1 (stereo not shown) [Compound 14]
4. CN(C)CCNC(=O)c1ccc(NC2CC3(CCN(c4ncnc5sc(CC(F)(F)F)cc45)C3)C2)c(F)c1 (single isomer, unassigned) [Compound 242]
5. CC(C)(N[C@@H]1CCC2(C1)CN(c1ncnc3sc(CC(F)(F)F)cc13)C2)c1ccccc1 (single isomer, unassigned)
6. O=C1NCCN1c1ccc(NC2CC3(CCN(c4ncnc5sc(CC(F)(F)F)cc45)C3)C2)cc1 (mixture of isomers)

0.96
3.53
-0.10
1.87
2.20
0.86

Please go through the list and note log10(IC50) for each compound.
1. O=C(c1ccc(NC2CC3(CCN(c4ncnc5sc(CC(F)(F)F)cc45)C3)C2)c(F)c1)N1CCOCC1 (single isomer, unassigned) [Compound 353]
2. N#CCc1cccc(NC2CCC3(C2)CN(c2ncnc4sc(CC(F)(F)F)cc24)C3)c1 (stereo not shown)
3. Cc1nc(N2CC3(CC[C@H](NCc4cccc(-c5cc[nH]n5)c4)C3)C2)c2cc(CC(F)(F)F)sc2n1 (single isomer, unassigned)
4. N#CCc1ccc(NC2CCC3(CCN(c4ncnc5sc(CC(F)(F)F)cc45)C3)C2)cc1 (stereo not shown)
5. CN1CCN(C(=O)c2ccc(NC3CC4(CCN(c5ncnc6sc(CC(F)(F)F)cc56)C4)C3)cc2)CC1 (single isomer, unassigned) [Compound 338]
6. CNC(=O)c1ccc(NC2CC3(CCN(c4ncnc5sc(CC(F)(F)F)cc45)C3)C2)cc1NCCN(C)C (mixture of isomers)

1: 1.24; 2: 2.20; 3: 2.41; 4: 1.51; 5: 1.95; 6: 1.53
